Hey, just so you know, these numbers are from ChEMBL document CHEMBL2429735.

- TARGET OR SYSTEM: Calcitonin gene-related peptide type 1 receptor (Homo sapiens, UniProt O60894+Q16602)
- Sequence (Q16602 whole entry, one chain of several): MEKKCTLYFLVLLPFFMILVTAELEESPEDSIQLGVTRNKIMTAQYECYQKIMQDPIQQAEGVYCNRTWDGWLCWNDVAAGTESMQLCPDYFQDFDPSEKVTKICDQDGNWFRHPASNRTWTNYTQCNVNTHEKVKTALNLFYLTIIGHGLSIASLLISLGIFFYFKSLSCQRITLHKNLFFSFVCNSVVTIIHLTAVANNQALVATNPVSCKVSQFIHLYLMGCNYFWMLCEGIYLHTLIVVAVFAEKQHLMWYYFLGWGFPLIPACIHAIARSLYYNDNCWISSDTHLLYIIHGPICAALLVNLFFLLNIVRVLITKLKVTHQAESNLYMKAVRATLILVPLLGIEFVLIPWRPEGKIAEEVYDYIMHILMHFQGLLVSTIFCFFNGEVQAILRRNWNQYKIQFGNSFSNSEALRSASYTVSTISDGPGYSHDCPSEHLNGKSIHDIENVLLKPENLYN
- METHOD NOTES: Antagonist activity at human CGRP receptor expressed in human SK-N-MC cells assessed as inhibition of CGRP-stimulated cAMP production
QUANTITY KIND: pIC50
Conceptually, pIC50 converts a concentration in mol/L into minus its log10.

**Query** // lookup pIC50 for Cc1cc(CC(NC(=O)N2CCC(N3Cc4ccccc4NC3=O)CC2)c2ncc(C)n2Cc2cccc(F)c2)cc2cn[nH]c12 (racemic)
**Result** 9.43

**Query** What about this compound? Cc1cc(CC(OC(=O)N2CCC(c3cc4ccccc4[nH]c3=O)CC2)c2ncc3n2CCNC3)cc2cn[nH]c12 (racemic)
**Result** 8.54

**Query** What about this compound? Cc1cc(CC(NC(=O)N2CCC(N3Cc4ccccc4NC3=O)CC2)c2nccn2Cc2ccc(C(C)(C)C)cc2)cc2cn[nH]c12 (racemic)
**Result** 9.72

**Query** What about this compound? Cc1cc(CC(NC(=O)N2CCC(N3Cc4ccccc4NC3=O)CC2)c2ncc[nH]2)cc2cn[nH]c12 (racemic)
**Result** 7.01
